# target_desc: USP33 DUSP2 domain (Homo sapiens, UniProt Q8TEY7)
# Construct: USP33_DUSP2; Q8TEY7; DUSP2; 806; 921; 6xHis-GST (N, cleaved yes); made in house; host or cells: Escherichia coli BL21-Gold (DE3)
# assay_summary: FP-monitored affinity measurements, USP33 DUSP2
# Assay type: binding
# particulars: competitive FP: unlabeled peptide (N-acetylated, C-amidated) against protein with 10 nM FITC-labeled peptide; 50 mM phosphate pH 7.4, room temperature; technical triplicate; read-out: KD, USP33 DUSP2
pKd: −log10 of the molar value. Ends that are not written are not given here.
observation_type: pKd

input: Name the reported pKd value associated with the substance PYIPMDGEDFQLSPICPE [HIF2A531-548]
output: < 3.00

input: Name the reported pKd value associated with the substance Ac-PYIPMDKDFQLRSFDQLS-NH2 [D570K]
output: 5.00

input: Name the reported pKd value associated with the substance Ac-SDDDLAWNIAPQGLQ-NH2 [GPR137B348-362]
output: < 3.70

input: Name the reported pKd value associated with the substance PYIPMDDDFQARSFDQLS [L574A]
output: < 3.70

###

# target_desc: USP20 DUSP2 domain (Homo sapiens, UniProt Q9Y2K6)
# Construct: USP20_DUSP2; Q9Y2K6; DUSP2; 776; 894; 6xHis-GST (N, cleaved yes); made in house; host or cells: Escherichia coli BL21-Gold (DE3)
# Sequence (Q9Y2K6 with tags, fused parts or gaps): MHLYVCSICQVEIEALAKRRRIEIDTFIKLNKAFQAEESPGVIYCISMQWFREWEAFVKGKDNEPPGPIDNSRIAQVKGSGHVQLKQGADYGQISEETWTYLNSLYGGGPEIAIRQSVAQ
# assay_summary: Peptide SPOT array, USP20 DUSP2;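 note: GST-tagged domain probed overnight at 4 °C on peptides made on cellulose membranes, bound protein detected via HRP-coupled anti-GST antibody, spot intensity from image analysis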
# Type: binding
# particulars: peptide SPOT array, sheet S5A, average normalized to the peptide with highest intensity (ARNTL2 = 100)
observation_type: Normalize to peptide with higher intensity % (%)
Enter your answer as a number in %; do not include the unit.

# input_sequence, readout_units, endpoint_result
data = [
    ("EEDVLAFNLQHLATLA [BAHCC1_1]", "%", -12.5871),
    ("PDVVDDFQLQHRHGPG [MFSD2B]", "%", -3.824),
    ("RLQKDIWDIQMRSKSL [GBP2]", "%", 28.8533),
]

input: Name the reported Normalize to peptide with higher intensity % value associated with the sequence QPIDNSFDIQSRDCIS [MAP3K4]
output: 22.4108

input: Name the reported Normalize to peptide with higher intensity % value associated with the sequence EKEDSCFELLHRAVGH [ASB8]
output: -17.5849

input: Name the reported Normalize to peptide with higher intensity % value associated with the sequence MNFNVWNIKEMLSIPS [IHO1]
output: -4.916

input: Name the reported Normalize to peptide with higher intensity % value associated with the sequence GGLTDLSSLIQAGQQF [SGTB]
output: 15.1621

input: Name the reported Normalize to peptide with higher intensity % value associated with the sequence KMGSDEFDISPRISKQ [MGA]
output: 77.8281

###

# target_desc: USP33 zf-UBP domain (Homo sapiens, UniProt Q8TEY7)
# Construct: USP33_UBP; Q8TEY7; zf-UBP; 36; 130; 6xHis-GST (N, cleaved yes); made in house; host or cells: Escherichia coli BL21-Gold (DE3)
# Sequence (Q8TEY7 with tags, fused parts or gaps): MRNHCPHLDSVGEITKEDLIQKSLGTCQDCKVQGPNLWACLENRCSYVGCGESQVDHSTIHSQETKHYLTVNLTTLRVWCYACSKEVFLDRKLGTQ
# assay_summary: FP-monitored affinity measurements, USP33 zf-UBP
# Type: binding
# particulars: USP33_UBP; FP displacement by unlabelled peptide; read-out: KD
substances and their reported pKd
API: returns pKd as number; meaning -log10 of concentration in mol/L.

// known answers, use as guide
# substance, endpoint_result
data = [
    ("AQDSPIDFHLQSWMNN [CEP192]", 4.85),
    ("YTNSSGKMALNSPQPG [IRAG1]", 5.10),
]

Next substance, pKd to be filled in.
input: What is its pKd for USP33 zf-UBP domain (Homo sapiens, UniProt Q8TEY7)? Entry: YPFQPGRMALESQSPG [USP19]
output: 4.39

Entry source: paper PMC13376213
